- EXPERIMENTAL SYSTEM: GAL4 DBD-CfEcR(DEF)/VP16AD-MmRXRE (Choristoneura fumiferana, UniProt O77240)
- Sequence (O77240 1-513): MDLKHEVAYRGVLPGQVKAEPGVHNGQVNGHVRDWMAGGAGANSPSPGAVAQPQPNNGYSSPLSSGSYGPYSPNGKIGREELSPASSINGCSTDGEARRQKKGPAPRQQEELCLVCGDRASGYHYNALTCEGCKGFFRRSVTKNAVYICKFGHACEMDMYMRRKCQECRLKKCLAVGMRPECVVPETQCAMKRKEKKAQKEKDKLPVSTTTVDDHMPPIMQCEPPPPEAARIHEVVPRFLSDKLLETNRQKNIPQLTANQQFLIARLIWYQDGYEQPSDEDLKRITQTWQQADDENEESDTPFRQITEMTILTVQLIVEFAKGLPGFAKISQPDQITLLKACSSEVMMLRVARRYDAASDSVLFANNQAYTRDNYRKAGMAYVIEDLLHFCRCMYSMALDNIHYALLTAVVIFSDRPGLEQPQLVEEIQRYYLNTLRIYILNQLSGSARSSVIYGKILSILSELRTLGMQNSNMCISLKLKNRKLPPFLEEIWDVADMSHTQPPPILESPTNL
- EXPERIMENTAL DETAILS: cell-based
- CONDITION LABEL: CHO, read-out: Fold Induction Average, 13B3 Assay (33 μM)
Output met for fold induction at 33 µM not less than 900; output not met otherwise.

Determine whether this compound has fold induction at 33 µM no lower than 900: COc1cccc(C(=O)NC2(C(=O)c3ccc(F)cc3)CCCC2)c1C [Example 42]
not met

Decide: fold induction at 33 µM of COc1cccc(C(=O)NC2(C(=O)c3cccc(C)c3)CCCC2)c1C [Example 2] >= 900?
met

Hi team, for COc1cccc(C(=O)C(C)(NC(=O)c2cccc(OC)c2C)C(C)C)c1 (centres unmarked) [Example 32] , is the recorded fold induction at 33 µM at or above 900?
not met

Record COc1cccc(C(=O)NC2(C(=O)c3cccc(C)c3)CCCCC2)c1C [Example 7] ; criterion: fold induction at 33 µM no lower than 900. Met?
met

Please tell me: is the compound COc1cccc(C(=O)NC2(C(=O)c3ccccc3)CCCCC2)c1C [Example 69] at or over 900 in terms of fold induction at 33 µM?
not met

Is fold induction at 33 µM for CCc1c(OC)cccc1C(=O)NC1(C(=O)c2ccccc2)CCCC1 [Example 21] at or above 900?
not met

Please tell me: is the compound CCC(CC)(NC(=O)c1cccc(OC)c1C)C(=O)c1ccc(F)c(C)c1 [Example 50] at or over 900 in terms of fold induction at 33 µM?
not met

For this compound, is measured fold induction at 33 µM 900 or higher? COc1cccc(C(=O)NC2(C(=O)c3cc(F)c(F)c(OC)c3)CCCC2)c1C [Example 67]
not met

Given CCC(CC)(NC(=O)c1cccc(OC)c1C)C(=O)c1ccc(F)cc1 [Example 38] , state whether its fold induction at 33 µM is at least 900.
not met

Record COc1cccc(C(=O)NC2(C(=O)c3cc(C)cc(C)c3)CCC2)c1C [Example 14] ; criterion: fold induction at 33 µM no lower than 900. Met?
met

Could you verify whether the entry COc1cccc(C(=O)NC2(C(=O)c3ccc(C)cc3)CCCCC2)c1C [Example 15] shows fold induction at 33 µM of no less than 900?
not met

# check: fold induction at 33 µM of COc1cccc(C(=O)NC2(C(=O)c3cc(C)cc(C)c3)CCCC2)c1C [Example 10] is greater than or equal to 900
met

hey, is fold induction at 33 µM for this one >= 900? COc1cccc(C(=O)NC2(C(=O)c3cc(C)cc(C)c3)CCOCC2)c1C [Example 27]
met

Decide: fold induction at 33 µM of COc1cccc(C(=O)NC2(C(=O)c3ccccc3C)CCCCC2)c1C [Example 44] >= 900?
not met

Does the compound COc1cccc(C(=O)NC(C)(Cc2ccccc2)C(=O)c2cc(C)cc(C)c2)c1C (centres unmarked) [Example 12] have recorded fold induction at 33 µM that is 900 or more?
not met

Could you please find out whether COc1cccc(C(=O)NC2(C(=O)c3cc(F)c(F)c(OC)c3)CCCCC2)c1C [Example 68] has fold induction at 33 µM that meets 900 or exceeds it?
not met

Could you tell me if the measured fold induction at 33 µM of CCC(CC)(NC(=O)c1cccc(OC)c1C)C(=O)c1cccc(C)c1 [Example 48] reaches 900 or more?
not met

State whether the measured fold induction at 33 µM reaches 900, counting equality as reaching it, for COc1cccc(C(=O)NC2(C(=O)c3ccc(F)c(C)c3)CCCC2)c1C [Example 17]
met

Hi, just wondering whether COc1cccc(C(=O)NC2(C(=O)c3cc(C)cc(C)c3)CCSCC2)c1C [Example 28] shows fold induction at 33 µM of 900 or higher.
met

Evaluate COc1cccc(C(=O)NC(C)(C(=O)c2ccccc2)C(C)C)c1C (centres unmarked) [Example 34] : fold induction at 33 µM at minimum 900?
not met

Hi team, for CCC(CC)(NC(=O)c1cccc(OC)c1C)C(=O)c1cc(C)cc(C)c1 [Example 51] , is the recorded fold induction at 33 µM at or above 900?
met

Kindly determine if fold induction at 33 µM recorded for COc1cccc(C(=O)NC(C)(C(=O)c2ccccc2C)C(C)C)c1C (centres unmarked) [Example 63] is above or exactly 900.
not met

Check if fold induction at 33 µM >= 900 (inclusive). Item: COc1ccc(C(=O)C2(NC(=O)c3cccc(OC)c3C)CCCCC2)cc1 [Example 46]
not met

Hi, just wondering whether COc1cccc(C(=O)NC(C)(C(=O)c2cccc(C)c2)C(C)C)c1C (centres unmarked) [Example 31] shows fold induction at 33 µM of 900 or higher.
met

hey, is fold induction at 33 µM for this one >= 900? COc1cccc(C(=O)NC2(C(=O)c3ccc(F)c(C)c3)CCCCC2)c1C [Example 18]
met

Dear colleague, could you confirm whether COc1cccc(C(=O)NC2(C(=O)c3cc(C)cc(C)c3)CCC3(CC2)OCCO3)c1C [Example 29] has fold induction at 33 µM at or above 900?
not met

Determine whether this compound has fold induction at 33 µM no lower than 900: COc1ccccc1C(=O)C1(NC(=O)c2cccc(OC)c2C)CCCCC1 [Example 45]
met

Decide: fold induction at 33 µM of COc1cccc(C(=O)NC(C)(C(=O)c2ccc(C)cc2)C(C)C)c1C (centres unmarked) [Example 33] >= 900?
not met

Hi, just wondering whether COc1ccc(C(=O)C2(NC(=O)c3cccc(OC)c3C)CCCCC2)c(OC)n1 [Example 64] shows fold induction at 33 µM of 900 or higher.
not met

Quick check, fold induction at 33 µM >= 900? COc1cccc(C(=O)NC2(C(=O)c3cc(C)cc(C)c3)CCS(=O)(=O)CC2)c1C [Example 62]
not met

Does the compound COc1ccccc1C(=O)C1(NC(=O)c2cccc(OC)c2C)CCCC1 [Example 40] have recorded fold induction at 33 µM that is 900 or more?
met

Does COc1cccc(C(=O)NC2(C(=O)c3cccc(C)c3)CCC2)c1C [Example 6] have a reported fold induction at 33 µM of at least 900?
not met

Does the reported fold induction at 33 µM for COc1cc(C(=O)C2(NC(=O)c3cccc(OC)c3C)CCCCC2)cc(OC)c1C [Example 66] fall at or above the 900 mark?
not met

Is it the case that COc1cccc(C(=O)NC(C)(CC(C)C)C(=O)c2cc(C)cc(C)c2)c1C (centres unmarked) [Example 55] has fold induction at 33 µM reaching or exceeding 900?
met

###

- EXPERIMENTAL SYSTEM: GAL4 DBD-CfEcR(DEF)/VP16AD-MmRXRE (Choristoneura fumiferana, UniProt O77240)
- EXPERIMENTAL DETAILS: cell-based
- CONDITION LABEL: maximum fold induction at any concentration relative to that of GS-E ligand
For each record, write down the corresponding 13B3 Rel Max FI.
Respond using a number only.

Name the recorded 13B3 Rel Max FI of the compound listed here: COc1cccc(C(=O)C(C)(CC(C)C)NC(=O)c2cccc(OC)c2C)c1 (stereo not drawn)
0.00

State its 13B3 Rel Max FI for this compound: COc1cccc(C(=O)NC2(C(=O)c3cccc(C)c3)CCCC2)c1C
0.24

Tell me 13B3 Rel Max FI reported for COc1ccc(C(=O)C2(NC(=O)c3cccc(OC)c3C)CCCCC2)c(OC)n1
0.81

# return recorded 13B3 Rel Max FI for entry COc1cccc(C(=O)NC(C)(C(=O)c2ccccc2)C(C)C)c1C (stereo not drawn)
0.00

Input COc1ccccc1C(=O)C1(NC(=O)c2cccc(OC)c2C)CCCCC1 , output reported 13B3 Rel Max FI.
0.67

Identify the reported 13B3 Rel Max FI for the following entry. COc1cccc(C(=O)NC2(C(=O)c3cc(C)cc(C)c3)CCCC2)c1C
0.71

Consider the compound CCC(CC)(NC(=O)c1cccc(OC)c1C)C(=O)c1cc(C)cc(C)c1 . State its measured 13B3 Rel Max FI.
0.64

Answer with the recorded 13B3 Rel Max FI of CCc1c(C(=O)NC2(C(=O)c3ccccc3)CCCC2)ccc2c1OCCO2 only.
0.00

Give a short answer stating reported 13B3 Rel Max FI for COc1ccc(C(=O)C2(NC(=O)c3cccc(OC)c3C)CCCCC2)cc1 .
0.00
